Tested on: Bacillus subtilis
Test: Antibacterial activity against Bacillus subtilis BD54
Assay type: functional
Quantity kind: MIC (µg/mL)
Your answer should be a plain number; it is taken to be in µg/mL.

# annotated cases, reported MIC shown
1) CCc1cc(Nc2cc(=O)n(CCCCCN3CC4CCCN(c5cc6c(cc5F)c(=O)c(C(=O)O)cn6CC)C4C3)c(=O)[nH]2)ccc1C (stereo unspecified) | 2.5
2) CCc1cc(Nc2cc(=O)n(CCCCN3CCN(c4c(F)cc5c(=O)c(C(=O)O)cn(C6CC6)c5c4OC)CC3)c(=O)[nH]2)ccc1C | 0.156
3) CCc1cc(Nc2cc(=O)n(CCCCN3CCN(c4cc5c(cc4F)c(=O)c(C(=O)O)cn5C4CC4)CC3C)c(=O)[nH]2)ccc1C (stereo unspecified) | 0.313
4) CCc1cc(Nc2cc(=O)n(CCCCN3CCN(c4cc5c(cc4F)c(=O)c(C(=O)O)cn5-c4ccc(F)cc4)CC3)c(=O)[nH]2)ccc1C | 0.156
5) CCc1cc(Nc2cc(=O)n(CCCCN3CCN(c4nc5c(cc4F)c(=O)c(C(=O)O)cn5CC)CC3)c(=O)[nH]2)ccc1C | 0.313

query: Which measured MIC value corresponds to CCc1cc(Nc2cc(=O)n(CCCCCN3CCN(c4cc5c(cc4F)c(=O)c(C(=O)O)cn5C4CC4)CC3)c(=O)[nH]2)ccc1C ?
result: 0.313
